Test: Chemical stability in simulated gastric fluid (SGF) without pepsin
Type: physicochemical
Settings: Table 2A, 50 μM prodrug
The label Satisfied is reserved for Chemical Stability SGF, no enzyme % T0 at 2 hours at 37 °C. strictly under 90%; Not satisfied covers values equal to or above it.

compound: [2H]C([2H])([2H])N(CC(=O)[O-])C(=N)NC(=O)CCCCCCCCCC.[Na+] [Compound 4]
discrete.label: Not satisfied

compound: Cl.[2H]C([2H])([2H])N(CC(=O)OC(C)C)C(=N)NC(=O)CCCCCCC/C=C\CCCCCCCC [Compound 45]
discrete.label: Not satisfied

compound: [2H]C([2H])([2H])N(CC(=O)[O-])C(=N)NC(=O)c1cccnc1.[Na+] [Compound 20]
discrete.label: Satisfied

compound: Cl.[2H]C([2H])([2H])N(CC(=O)OCCCCCCC)C(=N)NC(=O)CCCCCC [Compound 14]
discrete.label: Satisfied

compound: Cl.[2H]C([2H])([2H])N(CC(=O)OC(C)(C)C)C(=N)NC(=O)CCCCCCCCCC [Compound 44]
discrete.label: Satisfied

compound: [2H]C([2H])([2H])N(CC(=O)[O-])C(=N)NC(=O)CCCCCC.[Na+] [Compound 13]
discrete.label: Not satisfied

compound: [2H]C([2H])([2H])N(CCO)C(=N)NC(=O)CCCCCCCCCC [Compound 9]
discrete.label: Not satisfied

compound: [2H]C([2H])([2H])N(CC(=O)[O-])C(=N)NC(=O)CCCCCCCCCCCCC.[Li+] [Compound 7]
discrete.label: Satisfied

compound: Cl.[2H]C([2H])([2H])N(CC(=O)OCCCCCCC)C(=N)NC(=O)CCCCCCCCCCCC [Compound 11]
discrete.label: Satisfied

compound: [2H]C([2H])([2H])N(CC(=O)[O-])C(=N)NC(=O)CCCC/C=C\CCCCCCCCCCC.[Na+] [Compound 25]
discrete.label: Satisfied

compound: Cl.[2H]C([2H])([2H])N(CC(=O)OCc1oc(=O)oc1C)C(=N)NC(=O)CCCCCCCCCC [Compound 48]
discrete.label: Not satisfied

compound: [2H]C([2H])([2H])N(CC(=O)[O-])C(=N)NC(=O)CCCCCCCC.[Li+] [Compound 35]
discrete.label: Satisfied

compound: [2H]C([2H])([2H])N(CC(=O)[O-])C(=N)NC(=O)CCCCCCCCCC.[K+] [Compound 33]
discrete.label: Satisfied

compound: [2H]C([2H])([2H])N(CC(=O)O)C(=N)NC(=O)CCCCCCCCCCC [Compound 30]
discrete.label: Satisfied

compound: Cl.[2H]C([2H])([2H])N(CC(=O)OCCCCCCC)C(=N)NC(=O)CCCCCCCCCC [Compound 5]
discrete.label: Satisfied

compound: Cl.[2H]C([2H])([2H])N(CC(=O)OCC(C)(C)C)C(=N)NC(=O)CCCCCCCCCC [Compound 39]
discrete.label: Not satisfied

compound: Cl.[2H]C([2H])([2H])N(CC(=O)OC(C)C)C(=N)NC(=O)CCCCCCCCCCCC [Compound 10-HCl]
discrete.label: Satisfied

compound: [2H]C([2H])([2H])N(CC(=O)[O-])C(=N)NC(=O)CCCCCCC/C=C\CCCCCCCC.[Na+] [Compound 1]
discrete.label: Satisfied

* * *

Assay: Liver microsome stability, human
Type: in vitro ADME
Conditions: liver microsomes, pH 7.4, Table 2A, read-out: Microsome Stability Human t1/2

input.smiles: [2H]C([2H])([2H])N(CC(=O)O)C(=N)NC(=O)CCCCCCCCCCC
unit.descriptor: min
value.operator: =
half-life at 10 μM: 94

input.smiles: [2H]C([2H])([2H])N(CC(=O)[O-])C(=N)NC(=O)CCCCCCC.[Na+]
unit.descriptor: min
value.operator: >
half-life at 10 μM: 145

input.smiles: [2H]C([2H])([2H])N(CCO)C(=N)NC(=O)CCCCCCCCCC
unit.descriptor: min
value.operator: <
half-life at 10 μM: 5

input.smiles: [2H]C([2H])([2H])N(CC(=O)[O-])C(=N)NC(=O)CCCCCCCCCCC.[Na+]
unit.descriptor: min
value.operator: =
half-life at 10 μM: 59

input.smiles: [2H]C([2H])([2H])N(CC(=O)[O-])C(=N)NC(=O)c1cccnc1.[Na+]
unit.descriptor: min
value.operator: >
half-life at 10 μM: 145

input.smiles: [2H]C([2H])([2H])N1CC(=O)N=C1NC(=O)CCCCCCCCCC
unit.descriptor: min
value.operator: =
half-life at 10 μM: 24

input.smiles: [2H]C([2H])([2H])N(CC(=O)[O-])C(=N)NC(=O)CCCCCCC/C=C\CCCCCCCC.[Na+]
unit.descriptor: min
value.operator: =
half-life at 10 μM: 133

input.smiles: [2H]C([2H])([2H])N(CC(=O)[O-])C(=N)NC(=O)CCCCCCCCCC/C=C\CCCCC.[Na+]
unit.descriptor: min
value.operator: =
half-life at 10 μM: 14

* * *

Test: Chemical stability in simulated gastric fluid (SGF) without pepsin
Type: physicochemical
Conditions: Table 2A, 50 μM prodrug
observed.property: Chemical Stability SGF, no enzyme % T0 at 2 hours at 37 °C. (%)

compound: [2H]C([2H])([2H])N(CC(=O)OCC)C(=N)NC(=O)CCCCCCCCCCCC
measured.value: 111
//
compound: [2H]C([2H])([2H])N(CC(=O)OCC)/C(=N\C(=O)OC(C)(C)C)NC(=O)CCCCCCCCCC
measured.value: 32
//
compound: [2H]C([2H])([2H])N(CC(=O)[O-])C(=N)NC(=O)CCCCC/C=C\CCCCCCCCCC.[Li+]
measured.value: 39
//
compound: Cl.[H]/N=C(/NC(=O)CCCCCCC/C=C\CCCCCCCC)N(CC(=O)OCCCCCCC)C([2H])([2H])[2H]
measured.value: 81
//
compound: [2H]C([2H])([2H])N(CC(=O)[O-])C(=N)NC(=O)CCCCCCCCCCCC.[Na+]
measured.value: 91
//
compound: Cl.[2H]C([2H])([2H])N(CC(=O)OCC)C(=N)NC(=O)CCCCCCCCCC
measured.value: 117
//
compound: Cl.[2H]C([2H])([2H])N(CC(=O)OC(C)C)C(=N)NC(=O)CCCCCCCCCC [Compound 12-HCl]
measured.value: 117
//
compound: [2H]C([2H])([2H])N1CC(=O)N=C1NC(=O)CCCCCCCCCC
measured.value: 62
//
compound: [2H]C([2H])([2H])N(CC(=O)[O-])C(=N)NC(=O)CCC/C=C\C/C=C\C/C=C\C/C=C\CCCCC.[Na+]
measured.value: 30
//
compound: [2H]C([2H])([2H])N(CC(=O)[O-])C(=N)NC(=O)CCCCCCCCCCC.[Na+]
measured.value: 98
//
compound: [2H]C([2H])([2H])N(CC(=O)O)C(=N)NC(=O)CCCCCCC/C=C\CCCCCC
measured.value: 99
//
compound: [2H]C([2H])([2H])N(CC(=O)[O-])C(=N)NC(=O)CCCCC/C=C\CCCCCCCCCC.[Na+]
measured.value: 95
//
compound: [2H]C([2H])([2H])N(CC(=O)[O-])C(=N)NC(=O)CCCCCCC.[Na+]
measured.value: 99
//
compound: [2H]C([2H])([2H])N(CC(=O)[O-])C(=N)NC(=O)CCCCCCCC.[Na+]
measured.value: 99
//
compound: [2H]C([2H])([2H])N(CC(=O)O)C(=N)NC(=O)c1cccnc1
measured.value: 74
//
compound: [2H]C([2H])([2H])N(CC(=O)[O-])C(=N)NC(=O)CCCCCCCCCC/C=C\CCCCC.[Na+]
measured.value: 96

* * *

Test: Chemical stability in simulated intestinal fluid (SIF) without pancreatin
Assay type: physicochemical
Conditions: Table 2A, 50 μM prodrug
observed.property: Chemical Stability SIF, no enzyme % T0 at 2 hours at 37 °C. (%)

compound: Cl.[2H]C([2H])([2H])N(CC(=O)OCC)C(=N)NC(=O)CCCCCCCCCC
measured.value: 17
//
compound: [2H]C([2H])([2H])N(CC(=O)OCC)C(=N)NC(=O)CCCCCCCCCCCC
measured.value: 45
//
compound: Cl.[2H]C([2H])([2H])N(CC(=O)OC(C)C)C(=N)NC(=O)CCCCCCCCCCCC [Compound 10-HCl]
measured.value: 46
//
compound: [2H]C([2H])([2H])N(CC(=O)[O-])C(=N)NC(=O)CCCCCCCCCC.[Na+]
measured.value: 61
//
compound: [2H]C([2H])([2H])N(CC(=O)[O-])C(=N)NC(=O)CCC/C=C\C/C=C\C/C=C\C/C=C\CCCCC.[Na+]
measured.value: 86
//
compound: [2H]C([2H])([2H])N(CC(=O)[O-])C(=N)NC(=O)CCCCC/C=C\CCCCCCCCCC.[Li+]
measured.value: 74
//
compound: [2H]C([2H])([2H])N(CC(=O)[O-])C(=N)NC(=O)CCCCCCCCCCCCC.[Li+]
measured.value: 77
